Reference source for all entries: patent US6423519B1

# IC50 values compiled below
- System: Cryp GG
- experimental-details: Cryp GG inhibition
- Type: biochemical
- measurement-context: Table 1 Peptide Analogs

# compound, study-system, IC50
data = [
    ("NC[C@H](NC(=O)[C@@H](N)CS)C(=O)N1CCC(C(=O)NCc2ccncc2)(c2ccccc2)CC1 [Compound 89c]", "Cryp GG", "> 1000 nM"),
]

Consider the compound NC[C@H](NC(=O)[C@@H](N)CS)C(=O)NCc1cccc2ccccc12 [Compound 89a] and give its measured IC50.
> 1000 nM

====

- study-system: human GGTase (Homo sapiens, UniProt P53609)
- experimental-details: Human GGTase inhibition (Hu GG)
- Format: biochemical
- measurement-context: Table 1 Peptide Analogs; read-out: IC50 (nM) Hu GG
Peptide text beside a SMILES is read from it.
# IC50 values compiled below

# compound, IC50
data = [
    ("CC(C)C[C@H](NC(=O)[C@H](Cc1cccc2ccccc12)NC(=O)C[C@@H](NC(=O)[C@@H](N)CS)C(N)=O)C(=O)O [Compound 5h] (HELM PEPTIDE1{[O=C([C@H](Cc1cccc2ccccc12)N[*:1])[*:2]].L}|PEPTIDE2{C.[dD].[am]}$PEPTIDE1,PEPTIDE2,1:R1-2:R3$$$V2.0)", "< 500 nM"),
    ("NC[C@H](NC(=O)[C@@H](N)CS)C(=O)N1CCC(Cc2ccccc2)CC1 [Compound 89f]", "> 1000 nM"),
    ("NC[C@H](NC(=O)[C@@H](N)CS)C(=O)N1CCN(C(c2ccc(F)cc2)c2ccc(F)cc2)CC1 [Compound 89g]", "> 1000 nM"),
    ("CC(C)C[C@H](NC(=O)[C@H](Cc1cccc2ccccc12)NC(=O)CCNC(=O)[C@@H](N)CS)C(=O)O [Compound 5g] (HELM PEPTIDE1{C.[bAla].[O=C([C@H](Cc1cccc2ccccc12)N[*:1])[*:2]].L}$$$$V2.0)", "< 500 nM"),
    ("CC(C)C[C@H](NC(=O)[C@H](Cc1cccc2ccccc12)NC(=O)[C@H](CCO)NC(=O)[C@@H](N)CS)C(=O)O [Compound 5a] (HELM PEPTIDE1{C.[O=C([C@H](CCO)N[*:1])[*:2]].[O=C([C@H](Cc1cccc2ccccc12)N[*:1])[*:2]].L}$$$$V2.0)", "< 500 nM"),
]

Request - read-out IC50 | tested on human GGTase (Homo sapiens, UniProt P53609) | compound NC[C@H](NC(=O)[C@@H](N)CS)C(=O)NCc1cccc(-c2ccccc2)c1 [Compound 89b]
> 1000 nM

Request - read-out IC50 | tested on human GGTase (Homo sapiens, UniProt P53609) | compound CC(C)C[C@H](NC(=O)[C@H](Cc1cccc2ccccc12)NC(=O)[C@@H](N)CNC(=O)[C@@H](N)CS)C(=O)O [Compound 5c] (HELM PEPTIDE1{[N[C@@H](CN[*:3])C(=O)[*:2]].[O=C([C@H](Cc1cccc2ccccc12)N[*:1])[*:2]].L}|PEPTIDE2{C}$PEPTIDE1,PEPTIDE2,1:R3-1:R2$$$V2.0)
> 1000 nM

====

- study-system: C. albicans GGPTase (Candida albicans, UniProt Q8J224+Q9Y764)
- Sequence (Q9Y764 1-398): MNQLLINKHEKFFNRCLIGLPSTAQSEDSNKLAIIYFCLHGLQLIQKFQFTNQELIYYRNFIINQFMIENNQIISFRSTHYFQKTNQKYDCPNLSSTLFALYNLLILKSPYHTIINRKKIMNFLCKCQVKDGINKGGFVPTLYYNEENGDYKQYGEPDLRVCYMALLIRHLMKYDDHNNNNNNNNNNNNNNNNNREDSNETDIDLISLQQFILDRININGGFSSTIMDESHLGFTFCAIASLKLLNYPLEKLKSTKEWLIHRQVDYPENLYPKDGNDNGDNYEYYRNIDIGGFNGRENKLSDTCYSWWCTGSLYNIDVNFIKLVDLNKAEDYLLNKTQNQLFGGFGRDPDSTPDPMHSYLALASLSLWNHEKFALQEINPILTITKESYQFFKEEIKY
- Sequence (Q8J224 1-306): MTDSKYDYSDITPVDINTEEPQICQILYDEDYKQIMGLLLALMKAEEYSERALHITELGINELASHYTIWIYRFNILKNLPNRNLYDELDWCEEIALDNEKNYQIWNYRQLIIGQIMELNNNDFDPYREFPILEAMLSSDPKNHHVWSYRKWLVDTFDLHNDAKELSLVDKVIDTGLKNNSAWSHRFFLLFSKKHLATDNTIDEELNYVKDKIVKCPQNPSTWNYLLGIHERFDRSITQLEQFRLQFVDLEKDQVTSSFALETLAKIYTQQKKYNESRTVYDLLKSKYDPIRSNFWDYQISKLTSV
- experimental-details: biochemical
- measurement-context: Table 5; read-out: IC50 (nM) Candida
result-type: IC50

# compound, IC50
records = [
    ("CC(C)C[C@H](NC(=O)C1(c2ccccc2)CCN(C(=O)[C@@H](N)CS)CC1)C(=O)N[C@@H](C)C(=O)O [Compound 99a]", "< 50 nM"),
    ("CC(C)C[C@H](NC(=O)[C@H](Cc1ccc2ccccc2c1)NC[C@@H](NC[C@@H](N)CS)C(C)C)C(=O)O [Compound 9]", "< 1000 nM"),
]

Request - read-out IC50 | tested on C. albicans GGPTase (Candida albicans, UniProt Q8J224+Q9Y764) | compound CC(C)C[C@@H](C(=O)O)N(C)C(=O)c1ccc(NC[C@@H](N)CS)cc1-c1ccccc1 [Compound 19]
< 10 nM

Request - read-out IC50 | tested on C. albicans GGPTase (Candida albicans, UniProt Q8J224+Q9Y764) | compound CC(C)C[C@H](NC(=O)c1ccc(NC[C@@H](N)CS)cc1-c1ccccc1)C(=O)O [Compound 17]
< 10 nM
